Molecular target: CD38 NADase (Homo sapiens, UniProt P28907, N100D/N164D/N209D/N219D)
Construct: pPICZαA carrying the C-terminus of CD38 (AA46-300, with the four glycosylation sites mutated)
Sequence (P28907 46-300 N100D/N164D/N209D/N219D): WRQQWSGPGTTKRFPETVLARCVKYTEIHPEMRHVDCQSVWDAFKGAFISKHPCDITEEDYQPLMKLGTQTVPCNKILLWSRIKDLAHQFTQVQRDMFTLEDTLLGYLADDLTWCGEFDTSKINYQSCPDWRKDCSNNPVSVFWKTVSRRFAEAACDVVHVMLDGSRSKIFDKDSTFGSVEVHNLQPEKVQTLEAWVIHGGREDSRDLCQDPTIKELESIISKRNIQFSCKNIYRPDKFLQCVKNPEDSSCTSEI
Assay: Enzyme activity assay: inhibition of the NAD-glycohydrolase (NADase) activity of recombinant CD38 (NAD cycling assay)
Conditions: recombinant CD38 0.3 ng, 2 h preincubation at room temperature, NAD 2.5 µM; read-out: IC50, inhibitory activities of CD38 NADase
Procedure: Enzyme inhibition assays. The inhibitory activities to CD38 NADase of NAD analogues were evaluated by the method reported before. In this method, the inhibitions of NADase activities were calculated from the decrease of the NAD content. […] To study the inhibition of the NAD-glycohydrolase (NADase) activity of CD38 by the compounds, an enzymatic assay was performed. […] IC50 values of inhibitors were calculated by the GraphPad Prism 5 software (GraphPad Software, Inc., La Jolla, CA, USA).
A collection of compounds and their measured IC50
test.readout: IC50 (µM)

# compound, readout.number
rows = [
    ("NC(=O)c1ccc[n+]([C@@H]2O[C@H](COP(=O)(O)OP(=O)(O)OC[C@H]3O[C@@H]([n+]4cccc(C(N)=O)c4)[C@@H](F)[C@@H]3O)[C@@H](O)[C@@H]2F)c1 [Compound 20]", 0.575),
    ("NC(=O)c1ccc[n+](C2OC(COP(=O)([O-])OP(=O)(O)OCC3OC(n4cnc5c(=O)[nH]c(N)nc54)C(O)C3O)C(O)C2F)c1 (stereo not drawn) [Compound 13]", 0.0893),
    ("COc1ncnc2c1ncn2C1OC(COP(=O)(O)OP(=O)([O-])OCC2OC([n+]3cccc(C(N)=O)c3)C(F)C2O)C(O)C1O (stereo not drawn) [Compound 19]", 0.133),
]
